Biological target: T1, ADAAD T560A (Bos taurus (bovine), UniProt Q9TTA5 221-940, T780A)
T1 sequence: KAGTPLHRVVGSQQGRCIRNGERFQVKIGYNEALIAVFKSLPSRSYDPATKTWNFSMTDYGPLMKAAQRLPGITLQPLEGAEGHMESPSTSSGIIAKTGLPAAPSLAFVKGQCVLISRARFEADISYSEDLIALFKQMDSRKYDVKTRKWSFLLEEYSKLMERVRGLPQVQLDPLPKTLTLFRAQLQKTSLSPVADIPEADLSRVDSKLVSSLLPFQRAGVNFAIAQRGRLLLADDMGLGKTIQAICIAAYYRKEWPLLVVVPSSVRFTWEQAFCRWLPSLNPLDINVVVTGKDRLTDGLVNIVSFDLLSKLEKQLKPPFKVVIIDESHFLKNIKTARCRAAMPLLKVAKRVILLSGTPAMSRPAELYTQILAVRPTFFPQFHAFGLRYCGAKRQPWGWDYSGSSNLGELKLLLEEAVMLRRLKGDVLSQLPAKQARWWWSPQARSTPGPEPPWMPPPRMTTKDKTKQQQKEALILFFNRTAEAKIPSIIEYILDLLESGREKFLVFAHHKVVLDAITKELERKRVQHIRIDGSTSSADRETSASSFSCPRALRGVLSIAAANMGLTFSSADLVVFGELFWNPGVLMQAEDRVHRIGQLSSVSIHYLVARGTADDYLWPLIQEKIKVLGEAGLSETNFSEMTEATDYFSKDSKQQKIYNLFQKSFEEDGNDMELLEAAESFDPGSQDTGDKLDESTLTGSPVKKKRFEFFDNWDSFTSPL
Assay: intrinsic tryptophan fluorescence titration; no ATP; Fluorescence titration (ex 295 nm, em 340 nm), one-site saturation fit; buffer, salt, pH and temperature not given in the material. Wild-type ADAAD Kd values are cited from ref 24 and not listed
Details: protein: recombinant; tags: His (Ni-NTA, pET-14b); hairpin
REPORTED_PROPERTY: pKd
Here pKd is given on a logarithmic scale as minus log10 of the concentration in mol/L.

Problem: State the recorded pKd for this entry: GCGCAATTGCGCTCGACGATTTTTTAGCGCAATTGCGC (structured_DNA) [slDNA (stem-loop DNA)]
Result: 8.17
